Target: 17β-Hydroxysteroid Dehydrogenase Type 2 Enzyme (17β-HSD2) (Homo sapiens, UniProt P37059)
Construct: made in house; host or cells: Sf-9 insect cells (baculovirus)
Sequence (P37059 1-387): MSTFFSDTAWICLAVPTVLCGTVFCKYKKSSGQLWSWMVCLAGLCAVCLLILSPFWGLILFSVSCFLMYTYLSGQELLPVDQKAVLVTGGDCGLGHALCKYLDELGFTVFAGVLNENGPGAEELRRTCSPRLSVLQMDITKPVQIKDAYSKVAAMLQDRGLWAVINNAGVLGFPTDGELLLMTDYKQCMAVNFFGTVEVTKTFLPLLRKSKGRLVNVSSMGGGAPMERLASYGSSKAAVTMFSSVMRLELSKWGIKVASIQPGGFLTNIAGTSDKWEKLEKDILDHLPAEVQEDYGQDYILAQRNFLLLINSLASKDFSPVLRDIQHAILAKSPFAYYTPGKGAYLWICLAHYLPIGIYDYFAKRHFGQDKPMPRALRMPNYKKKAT
Experiment: Inhibition of the 17β-hydroxysteroid dehydrogenase type 2 enzyme, 3H-testosterone conversion
Type: biochemical
Details: inhibitor at 10 μM
assay_readout: inhibition at 10 µM (%)

# compound, unit_of_measurement, inhibition at 10 µM
measured = [
    ("COC1CCN(C(=O)N2CCC(=C(C#N)c3cccc(Cl)c3)CC2)CC1", "%", 31),
]

a: CCOC1CCN(C(=O)N2CCC(=C(C#N)c3cccc4[nH]ncc34)CC2)CC1
b: CC(O)C1CCN(C(=O)N2CCC(=C(C#N)c3ccc(C(F)(F)F)cc3)CC2)CC1 (stereo not shown)
c: N#CC(=C1CCN(C(=O)N2CC(C#N)C2)CC1)c1ccc(F)cc1F
Output the entries ranked by inhibition at 10 µM from maximum down to minimum. Use the labels to give the ranking in the order requested.
a, b, c

Provenance of the data: patent US12637471B2
